tested-target: Protein cereblon/Tyrosine-protein phosphatase non-receptor type 1 (Homo sapiens, UniProt P18031+Q96SW2)
Sequence (P18031 whole entry): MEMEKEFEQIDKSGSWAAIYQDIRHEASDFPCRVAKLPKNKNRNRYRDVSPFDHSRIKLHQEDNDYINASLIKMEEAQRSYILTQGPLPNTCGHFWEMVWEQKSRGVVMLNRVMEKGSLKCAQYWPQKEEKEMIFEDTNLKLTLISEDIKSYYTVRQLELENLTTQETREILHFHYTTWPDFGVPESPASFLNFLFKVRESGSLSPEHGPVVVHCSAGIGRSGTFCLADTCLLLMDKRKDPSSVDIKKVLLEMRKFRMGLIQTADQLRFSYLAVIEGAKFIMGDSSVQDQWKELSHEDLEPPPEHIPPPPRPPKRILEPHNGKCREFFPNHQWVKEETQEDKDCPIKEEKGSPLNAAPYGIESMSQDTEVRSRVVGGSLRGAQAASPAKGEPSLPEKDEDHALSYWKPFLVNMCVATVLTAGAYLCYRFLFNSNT
Sequence (Q96SW2 whole entry): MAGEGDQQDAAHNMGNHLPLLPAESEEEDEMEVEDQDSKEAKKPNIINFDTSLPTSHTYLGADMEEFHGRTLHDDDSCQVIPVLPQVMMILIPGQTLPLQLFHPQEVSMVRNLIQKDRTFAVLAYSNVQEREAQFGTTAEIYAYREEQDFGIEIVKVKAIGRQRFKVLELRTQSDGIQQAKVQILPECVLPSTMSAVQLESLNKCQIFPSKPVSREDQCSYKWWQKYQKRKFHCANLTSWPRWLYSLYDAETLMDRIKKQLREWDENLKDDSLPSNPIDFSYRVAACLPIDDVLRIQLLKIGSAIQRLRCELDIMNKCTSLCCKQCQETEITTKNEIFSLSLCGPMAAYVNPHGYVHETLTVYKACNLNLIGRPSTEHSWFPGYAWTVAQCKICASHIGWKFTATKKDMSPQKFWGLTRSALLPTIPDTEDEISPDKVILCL
test-name: PROTAC activity at PTP1B/CRBN in insulin treated human HepG2 cells assessed as protein degradation incubated for 72 hrs by Western blot analysis
Assay type: cell-based
Hi! Just check whether DC50 is below 200 nM. Below gives yes, equal or above gives no.

{"columns": ["molecule", "classification"],
 "data": [
  ["C[C@H]1[C@H](C)CC[C@]2(C(=O)NCCCCCCOCCOCCOCC(=O)Nc3cccc4c3C(=O)N(C3CCC(=O)NC3=O)C4=O)CC[C@]3(C)C(=CC[C@@H]4[C@@]5(C)CC[C@H](O)C(C)(C)[C@@H]5CC[C@]43C)[C@H]12 (stereo not given in full)", "yes"]
]}

Prompt: Problem: For the molecule CC1(C)CC[C@]2(C(=O)NCCCOCCOCCOCCCNc3cccc4c3C(=O)N(C3CCC(=O)NC3=O)C4=O)CC[C@]3(C)C(=CC[C@@H]4[C@@]5(C)CC[C@H](O)C(C)(C)[C@@H]5CC[C@]43C)[C@@H]2C1 (stereo not given in full) , is DC50 under 200 nM?
Completion: no

Prompt: Let us now turn to C[C@H]1[C@H](C)CC[C@]2(C(=O)NCCCCCCOCCOCCOCCOCC(=O)Nc3cccc4c3C(=O)N(C3CCC(=O)NC3=O)C4=O)CC[C@]3(C)C(=CC[C@@H]4[C@@]5(C)CC[C@H](O)C(C)(C)[C@@H]5CC[C@]43C)[C@H]12 (stereo not given in full)
Completion: no

Prompt: Let us now turn to CC1(C)CC[C@]2(C(=O)NCCCCCCOCCOCCOCCOCCCCCC(=O)Nc3cccc4c3C(=O)N(C3CCC(=O)NC3=O)C4=O)CC[C@]3(C)C(=CC[C@@H]4[C@@]5(C)CC[C@H](O)C(C)(C)[C@@H]5CC[C@]43C)[C@@H]2C1 (stereo not given in full)
Completion: yes
